Experiment: Study 11429: plasma CPX pharmacokinetics after IV CPX-POM, SQ CPX-POM and oral CPX-O
Assay type: in vivo, male beagle dogs
Details: male, beagle, dog; plasma CPX; dogs; single 9 mg/kg oral
Readout Kind: half-life (h)
Hi! Could you send only the number? It should be in h, unit omitted.

Please report half-life for the following compound: Cc1cc(C2CCCCC2)n(O)c(=O)c1 5.52

----------
Assay: Study 11428: plasma CPX pharmacokinetics after IV CPX-POM, SQ CPX-POM and oral CPX-O
Assay type: in vivo, male Sprague-Dawley rats
Details: male, Sprague-Dawley, rat, plasma, po, 30 mg/kg, plasma CPX; rats; single 30 mg/kg oral; read-out: AUC0∫^∞
Readout Kind: AUC

Please report AUC for the following compound: Cc1cc(C2CCCCC2)n(O)c(=O)c1 [CPX-O, ciclopirox olamine] 378 ng·h/mL
